biological target: hCB-2 (Homo sapiens, UniProt P34972); construct: purchased Perkin Elmer, Boston, Mass; host or cells: Sf9 insect cells (membranes); assay: hCB2-Sf9 antagonist mode SPA GTP-γ-35S binding assay; assay type: biochemical; details: human CB-2 Sf9 membranes, antagonist mode vs methanandamide; read-out: hCB-2 SPA GTPγS Sf9 Membrane Antagonist Kb
Sequence (P34972 whole entry): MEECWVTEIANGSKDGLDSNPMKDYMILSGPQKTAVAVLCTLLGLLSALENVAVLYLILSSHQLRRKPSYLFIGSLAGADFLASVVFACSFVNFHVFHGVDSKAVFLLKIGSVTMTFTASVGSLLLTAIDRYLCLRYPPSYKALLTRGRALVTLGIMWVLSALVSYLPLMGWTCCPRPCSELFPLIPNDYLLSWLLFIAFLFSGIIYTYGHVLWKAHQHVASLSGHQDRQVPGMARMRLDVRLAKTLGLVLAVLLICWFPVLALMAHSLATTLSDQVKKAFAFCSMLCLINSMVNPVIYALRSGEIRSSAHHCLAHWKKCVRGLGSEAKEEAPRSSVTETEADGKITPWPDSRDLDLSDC
Measured Parameter: Kb (nM)

[[record]]
compound = "CC(C)(N[C@@H]1C[C@H](c2cccc(F)c2)N(c2ccc(OC(F)(F)F)cc2)C1=O)c1ccnc(C(F)(F)F)n1 [Example 3]"
measured_parameter = "Kb"
reading_unit = "nM"
test_result = 397

[[record]]
compound = "CC(C)(N[C@@H]1C[C@H](c2ccccc2)N(c2ccc(OC(F)(F)F)cc2)C1=O)c1ccnc(C(F)(F)F)n1 [Example 4]"
measured_parameter = "Kb"
reading_unit = "nM"
test_result = 288


====

target: hCB-1 (Homo sapiens, UniProt P21554); construct: purchased Applied Cell Sciences, Rockville, Md; host or cells: CHO cells (membranes); experiment: hCB1-CHO antagonist mode SPA GTP-γ-35S binding assay; format: biochemical; conditions: human CB-1 CHO membranes, antagonist mode vs methanandamide; read-out: hCB-1 SPA GTPγS CHO Membrane Antagonist Kb
Sequence (P21554 whole entry): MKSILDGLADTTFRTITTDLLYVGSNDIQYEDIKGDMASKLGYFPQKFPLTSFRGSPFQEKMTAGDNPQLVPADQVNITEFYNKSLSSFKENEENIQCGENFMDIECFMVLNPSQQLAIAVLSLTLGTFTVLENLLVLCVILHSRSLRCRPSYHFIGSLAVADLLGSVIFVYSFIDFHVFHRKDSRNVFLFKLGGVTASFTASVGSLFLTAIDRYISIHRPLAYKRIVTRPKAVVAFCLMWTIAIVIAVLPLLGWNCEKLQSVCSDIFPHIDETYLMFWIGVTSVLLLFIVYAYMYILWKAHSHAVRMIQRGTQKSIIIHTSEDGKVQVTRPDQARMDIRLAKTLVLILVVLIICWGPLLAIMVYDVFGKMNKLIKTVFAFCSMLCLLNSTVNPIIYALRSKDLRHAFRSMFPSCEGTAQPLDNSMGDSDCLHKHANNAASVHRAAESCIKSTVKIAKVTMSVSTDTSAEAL
Measured Parameter: Kb (nM)

[[record]]
compound = "CC(C)(N[C@@H]1C[C@H](c2cccc(F)c2)N(c2ccc(OC(F)(F)F)cc2)C1=O)c1ccnc(C(F)(F)F)n1 [Example 3]"
assay_system = "hCB-1 (Homo sapiens, UniProt P21554)"
test_result = 0.916

[[record]]
compound = "CC(C)(N[C@@H]1C[C@H](c2cccc(OC(F)(F)F)c2)N(c2ccc(C(F)(F)F)cc2)C1=O)c1ccnc(C2CC2)n1 [Example 2]"
assay_system = "hCB-1 (Homo sapiens, UniProt P21554)"
test_result = 0.644

[[record]]
compound = "CC(C)(N[C@@H]1C[C@H](c2ccccc2)N(c2ccc(OC(F)(F)F)cc2)C1=O)c1ccnc(C(F)(F)F)n1 [Example 4]"
assay_system = "hCB-1 (Homo sapiens, UniProt P21554)"
test_result = 0.83

[[record]]
compound = "CC(C)(N[C@@H]1C[C@H](c2cccc(OC(F)(F)F)c2)N(c2ccc(C(F)(F)F)cc2)C1=O)c1ccnc(C(F)(F)F)n1 [Example 1]"
assay_system = "hCB-1 (Homo sapiens, UniProt P21554)"
test_result = 0.895


====

target: hCB-1 (Homo sapiens, UniProt P21554); construct: purchased Applied Cell Sciences, Rockville, Md; host or cells: CHO cells (membranes); test: hCB1-CHO agonist mode SPA GTP-γ-35S binding assay; assay type: biochemical; settings: normalized to full agonist methanandamide; below zero = inverse agonist
Measured Parameter: hCB-1 SPA GTPγS CHO Membrane Agonist % Relative Efficacy (%)

[[record]]
compound = "CC(C)(N[C@@H]1C[C@H](c2cccc(OC(F)(F)F)c2)N(c2ccc(C(F)(F)F)cc2)C1=O)c1ccnc(C(F)(F)F)n1 [Example 1]"
reading_unit = "%"
test_result = "−99.3"

[[record]]
compound = "CC(C)(N[C@@H]1C[C@H](c2cccc(OC(F)(F)F)c2)N(c2ccc(C(F)(F)F)cc2)C1=O)c1ccnc(C2CC2)n1 [Example 2]"
reading_unit = "%"
test_result = "−108"

[[record]]
compound = "CC(C)(N[C@@H]1C[C@H](c2cccc(F)c2)N(c2ccc(OC(F)(F)F)cc2)C1=O)c1ccnc(C(F)(F)F)n1 [Example 3]"
reading_unit = "%"
test_result = "−107"

[[record]]
compound = "CC(C)(N[C@@H]1C[C@H](c2ccccc2)N(c2ccc(OC(F)(F)F)cc2)C1=O)c1ccnc(C(F)(F)F)n1 [Example 4]"
reading_unit = "%"
test_result = "−105"

